Just for reference, PubChem BioAssay AID1159580 is where these values come from.

experiment: chemical genetic growth profiling, strain panel (AID 1159580);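 note: tested at 20 µM; growth read once vehicle control cultures reached saturation at 30 °C; 1 = growth at the plate median or of vehicle wells; lower values mean less growth of the strain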; conditions: S. cerevisiae deletion strains, growth OD, locus YCR088W, strain abp1, hits give low values
Structures can show the parent of a compound that is named as a salt. About 2,000 (36%) of roughly 5,500 compounds were called active. About 18% were inconclusive and are not listed. The list shows a part of the results. Where a SMILES comes first, the peptide text is derived from it. The star is where a group is joined. Tfa = O=C(C(F)(F)F)*
Parameter Measured: normalized growth
Reply: number alone, nothing else.

COc1cc(OC)c2c(=O)c(-c3ccccc3)coc2c1 = 0.993

Tell me its normalized growth given Cc1ccc(C)c(OCCCC(C)(C)C(=O)O)c1 as the entry. 0.982

Tell me its normalized growth given CC(C)C(NC(=O)C(Cc1ccc(O)cc1)NC(=O)C(NC(=O)C(F)(F)F)C(C)C)C(=O)O (stereo not drawn) (Tfa-Val-Tyr-Val-OH; configuration not given here) as the entry. 0.988

Tell me its normalized growth given COC(=O)C1=CCCN(C)C1 as the entry. 1.01

Tell me its normalized growth given CC(C)C(C)/C=C/C(C)[C@H]1CCC2C3=CCC4CC(=O)CC[C@]4(C)C3CC[C@@]21C (stereo partly drawn) as the entry. 1

Tell me its normalized growth given CC(C)NCC(O)c1cc(O)cc(O)c1 (stereo not drawn) as the entry. 0.994

Tell me its normalized growth given Nc1ccn(C2O[C@H](CO)[C@@H](O)[C@@H]2O)c(=O)n1 (stereo partly drawn) as the entry. 0.986

Tell me its normalized growth given O=C1NC(=O)C(=O)C(=O)N1 as the entry. 0.984

Tell me its normalized growth given CCNC(=O)CC[C@H](N)C(=O)O as the entry. 1

###

assay: chemical genetic growth profiling, strain panel (AID 1159580); settings: S. cerevisiae deletion strains, growth OD, locus YNR049C, strain mso1, hits give low values
Out of some 5,500 compounds screened, about 2,000 (36%) were called active. Inconclusive results (about 18%) are left out. The list shows a part of the results.
Parameter Measured: normalized growth
Reply: number alone, nothing else.

CCCCCCCCCCCCCCCC(=O)OC1C(SC)OC(C(NC(=O)C2CC(CCC)CN2C)C(C)Cl)C(O)C1O (stereo not given) = 0.972
Nc1nc2ncc(=O)[nH]c2c(=O)[nH]1 = 0.973
O=C1OC2(c3ccc(O)cc3Oc3cc(O)ccc32)c2ccccc21 = 1.02
O=C1OC(c2ccc(O)cc2)(c2ccc(O)cc2)c2ccccc21 = 0.99

Below: the item to evaluate.
Tell me its normalized growth given O=C(O)c1ccccc1-c1c2cc(Br)c(=O)cc-2oc2[c]([Hg])c(O)c(Br)cc12 as the entry. 1.02

###

assay: chemical genetic growth profiling, strain panel (AID 1159580); details: S. cerevisiae deletion strains, growth OD, locus YDR001C, strain nth1, hits give low values
The campaign covered roughly 5,500 compounds. About 2,000 (36%) were called active. Inconclusive results (about 18%) are left out. This is one part of the list.
Parameter Measured: normalized growth
Reply: number alone, nothing else.

O=c1cc[nH]c(=S)[nH]1 = 1
Nc1nc2ncc(=O)[nH]c2c(=O)[nH]1 = 0.972
Oc1ccc(Cl)cc1 = 1.01
O=C1C=C2C=C[C@@H]3C[C@@]2(O1)[C@H]1CCCCN31 = 0.992
OCc1ccccc1O = 1.02

Below: the item to evaluate.
Tell me its normalized growth given C[C@@H]1C(=O)OC2[C@H](O)C34[C@@H]5OC(=O)[C@@]3(O[C@@H]3OC(=O)[C@H](O)[C@@]34[C@H](C(C)(C)C)[C@H]5O)[C@]21O (stereo partly specified) as the entry. 0.973

###

In this section we review reported normalized growth values for a set of compounds.
test: chemical genetic growth profiling, strain panel (AID 1159580); details: S. cerevisiae deletion strains, growth OD, locus YGR135W, strain pre9, hits give low values
Screen size: about 5,500 compounds; about 2,000 (36%) were called active. Roughly 18% stayed inconclusive and do not appear here. Some of the results follow.
Reply: number alone, nothing else.

CCCCOC(=O)c1ccccc1C(=O)OCc1ccccc1 = 0.972
CC(=O)N[C@@H](CS)C(=O)O = 1.02
CCCCNc1ccc(C(=O)OCCN(C)C)cc1 = 1
CCCCN(CCCC)CCCOC(=O)c1ccc(N)cc1 = 0.994
CC1(C)O[C@@H]2CC3C4CCC5=CC(=O)CCC5(C)C4(F)C(O)CC3(C)[C@]2(C(=O)CCl)O1 (stereo partly specified) = 0.973

Below: the item to evaluate.
Tell me its normalized growth given CCN(CC)CCOC(=O)c1ccc(N)cc1 as the entry. 0.997

###

test: chemical genetic growth profiling, strain panel (AID 1159580); details: S. cerevisiae deletion strains, growth OD, locus YLR221C, strain rsa3, hits give low values
Screen size: about 5,500 compounds; about 2,000 (36%) were called active. Roughly 18% stayed inconclusive and do not appear here. This is one part of the list.
In this section we review reported normalized growth values for a set of compounds.
Reply: number alone, nothing else.

CCC(C)C(=O)O[C@H]1C[C@H](O)C=C2C=C[C@H](C)[C@H](CC[C@@H](O)C[C@@H](O)CC(=O)O)C21 (some centres undefined) = 0.998
CCOC(=O)c1ccc(O)cc1 = 0.999
CCCCCCOc1ccccc1C(N)=O = 0.845
COC(=O)C1=CCCN(C)C1 = 0.992

Below: the item to evaluate.
Tell me its normalized growth given CCCOc1ccc(C(=O)OCCN(CC)CC)cc1N as the entry. 1

###

experiment: chemical genetic growth profiling, strain panel (AID 1159580);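 note: tested at 20 µM; growth read once vehicle control cultures reached saturation at 30 °C; 1 = growth at the plate median or of vehicle wells; lower values mean less growth of the strain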; conditions: S. cerevisiae deletion strains, growth OD, locus YBR160W, strain CDC28, hits give low values
In all, about 5,500 compounds went through this assay and about 2,000 (36%) were called active. Inconclusive results (about 18%) are left out. The list shows a part of the results.
In this section we review reported normalized growth values for a set of compounds.
Reply: number alone, nothing else.

# count of solved cases: 4
O=C(Nc1ccc(Cl)cc1)OCCSc1nc2ccccc2s1 = 0.979
CC(C)(C)c1ccc(C(=O)Nc2ccc(C(F)(F)F)cc2)s1 = 0.984
O=C(NNc1ccc(I)cc1)c1cc(Cl)cc(Cl)c1 = 0.948
OC(=Cc1nc2ccccc2nc1C=C(O)c1ccc(Cl)cc1)c1ccc(Cl)cc1 = 0.984

Tell me its normalized growth given O=C(/C=C/Sc1nc2ccccc2s1)c1ccc(Cl)cc1 as the entry. 0.983

Tell me its normalized growth given CCCCCCCCCCCC(=O)NOC(=O)c1c(-c2c(Cl)cccc2Cl)noc1C as the entry. 0.998

Tell me its normalized growth given CCCCN(C)C(=O)c1cc([N+](=O)[O-])cc2c1-c1ccc([N+](=O)[O-])cc1C2=C(C#N)C#N as the entry. 0.979

Tell me its normalized growth given N#CC(C#N)=Cc1ccc(-c2ccccc2C(F)(F)F)o1 as the entry. 0.95

Tell me its normalized growth given CC(C)(CCC(C)(C)N1C(=O)c2cccc3cccc(c23)C1=O)N1C(=O)c2cccc3cccc(c23)C1=O as the entry. 0.0904

###

experiment: chemical genetic growth profiling, strain panel (AID 1159580);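 note: tested at 20 µM; growth read once vehicle control cultures reached saturation at 30 °C; 1 = growth at the plate median or of vehicle wells; lower values mean less growth of the strain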; conditions: S. cerevisiae deletion strains, growth OD, locus YLR370C, strain arc18, hits give low values
Hit rate of the full screen: of about 5,500 compounds, about 2,000 (36%) were called active. Inconclusive results (about 18%) are left out. This is one part of the list.
Parameter Measured: normalized growth
Reply: number alone, nothing else.

# count of solved cases: 3
OCc1ccccc1O = 1.01
Oc1ccc(Cl)cc1Cc1cc(Cl)ccc1O = 0.108
CC1C[C@H]2CC(=O)[C@H]3CCCN4CCC[C@H]2[C@]34C1 (stereo not given in full) = 1.02

Tell me its normalized growth given CC(C)(C)CC(C)(C)c1ccc(O)c(Cc2ccc(Cl)cc2Cl)c1 as the entry. 1.03

Tell me its normalized growth given Oc1ccc(Cl)cc1 as the entry. 1.01

###

In this section we review reported normalized growth values for a set of compounds.
assay: chemical genetic growth profiling, strain panel (AID 1159580);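 note: tested at 20 µM; growth read once vehicle control cultures reached saturation at 30 °C; 1 = growth at the plate median or of vehicle wells; lower values mean less growth of the strain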; details: S. cerevisiae deletion strains, growth OD, locus YFR028C, strain CDC14, hits give low values
In all, about 5,500 compounds went through this assay and about 2,000 (36%) were called active. About 18% were inconclusive and are not listed. Some of the results follow.
Reply: number alone, nothing else.

# count of solved cases: 3
O=C(NNc1ccc(I)cc1)c1cc(Cl)cc(Cl)c1 = 0.931
CCCCCCCCCCCC(=O)NOC(=O)c1c(-c2c(Cl)cccc2Cl)noc1C = 0.996
Cc1cccc(NC(=S)NNC(=O)CSCc2cccc3ccccc23)c1 = 0.99

Tell me its normalized growth given O=C(Nc1ccc(OC(F)(F)F)cc1)N1CCN(c2nc(-c3ccccc3)ns2)CC1 as the entry. 0.997

Tell me its normalized growth given O=[N+]([O-])c1ccc2oc(C(O)c3cccc(Cl)c3)cc2c1 (configuration not stated) as the entry. 0.949

Tell me its normalized growth given O=[N+]([O-])c1ccc2oc(C(O)c3ccc(-c4ccccc4)cc3)cc2c1 (configuration not stated) as the entry. 0.997

Tell me its normalized growth given O=C(Nc1ccc(Cl)cc1)OCCSc1nc2ccccc2s1 as the entry. 0.975

Tell me its normalized growth given O=C(/C=C/Sc1nc2ccccc2s1)c1ccc(Cl)cc1 as the entry. 0.986

Tell me its normalized growth given N#CC(C#N)=Cc1ccc(-c2ccccc2C(F)(F)F)o1 as the entry. 0.94

Tell me its normalized growth given CC(=O)Nc1ccc(S(=O)(=O)Nc2ccccc2Oc2ccc(Cl)cc2Cl)cc1 as the entry. 0.993

Tell me its normalized growth given Cc1c(-c2ccnn2C(=O)c2ccco2)cnn1-c1ccccc1 as the entry. 0.94

Tell me its normalized growth given Cc1onc(-c2c(Cl)cccc2Cl)c1C(=O)NNc1c(Cl)cccc1Cl as the entry. 0.97

Tell me its normalized growth given CC1(C)OC(=O)C(=Cc2cccn2-c2ccc(OC(F)(F)F)cc2)C(=O)O1 as the entry. 0.964

Tell me its normalized growth given Cc1onc(-c2c(Cl)cccc2Cl)c1C(=O)NC(C)(C)CC(C)(C)C as the entry. 0.995

Tell me its normalized growth given O=C(Nc1ccc(OC(F)(F)F)cc1)OC1CN(C(c2ccccc2)c2ccccc2)C1 as the entry. 1.01

Tell me its normalized growth given FC(F)(F)c1ccnc(N2CCCN(C(=S)Nc3ccc(Cl)cc3Cl)CC2)n1 as the entry. 0.979

Tell me its normalized growth given CC(=O)ON=C1c2cc([N+](=O)[O-])ccc2-c2ccc([N+](=O)[O-])cc21 as the entry. 0.963

Tell me its normalized growth given FC(F)(F)c1cccc(-n2c(CSCc3cccc4ccccc34)n[nH]c2=S)c1 as the entry. 0.994

Tell me its normalized growth given CCCCN(C)C(=O)c1cc([N+](=O)[O-])cc2c1-c1ccc([N+](=O)[O-])cc1C2=C(C#N)C#N as the entry. 0.98

Tell me its normalized growth given O=[N+]([O-])c1ccc(Sc2ssc(=S)c2-c2ccccc2)nc1 as the entry. 0.97

Tell me its normalized growth given S=c1[nH]nc(Nc2ccc(I)cc2)s1 as the entry. 0.871

Tell me its normalized growth given Cc1onc(-c2c(F)cccc2Cl)c1C(=O)NNc1cc(Cl)cc(Cl)c1 as the entry. 0.976
